- System: HepG2
- Assay: relative viability EC50 (midpoint between 100% and the lowest measured viability); higher = less toxic
- Condition Description: 72 h
Observable: relative viability EC50

Reference set, count: 3
Compound	relative viability EC50
Oc1ccc(Cl)c2cccnc12 [cloxyquin]	> 10 µM
CCC(=O)O[C@@H]1CC(=O)O[C@H](C)C/C=C/C=C/[C@H](OC(C)=O)[C@H](C)C[C@H](CC=O)[C@H](O[C@@H]2O[C@H](C)[C@@H](O[C@H]3C[C@@](C)(OC(C)=O)[C@@H](OC(=O)CC)[C@H](C)O3)[C@H](N(C)C)[C@H]2O)[C@H]1OC [miocamycin]	> 10 µM
O=C(NC1CCN(CCCCC2(C(=O)NCC(F)(F)F)c3ccccc3-c3ccccc32)CC1)c1ccccc1-c1ccc(C(F)(F)F)cc1 [lomitapide]	3.14 µM

Assay HepG2, sample Cc1cccc(C)c1NC(=O)C[N+](C)(C)C [QX-222] , relative viability EC50 read: > 10 µM

====

Reported cell viability is given for each of the following compounds.
- Test system: Caco-2
- Assay: cell viability relative to DMSO; higher = less toxic
- Condition Description: 72 h; 100 nM
Give the value, in units of %, as a plain number.

Reference set, count: 5
Structure String	cell viability (%)
O=C(O)c1cnn(-c2nc3cc(OC(F)(F)F)c(Cl)cc3[nH]2)c1	97.6
Clc1ccc(C2=CCC[C@H]3CC[C@@H]2N3)cn1	96.8
C=CCN1CC[C@]23c4c5ccc(O)c4O[C@H]2[C@@H](OCCOCCOCCOCCOCCOCCOCCOC)CC[C@@]3(O)[C@H]1C5	98.5
C/C=C/c1cc(OC)c(OC)cc1OC	88.3
COc1cc2ncn(-c3cc(OCc4ccccc4C(F)(F)F)c(C(N)=O)s3)c2cc1OC	102

Assay Caco-2, sample C[C@H](NC(=O)[C@@H](Cc1c[nH]c2ccccc12)NC(=O)[C@@H](N)Cc1c[nH]cn1)C(=O)N[C@@H](Cc1c[nH]c2ccccc12)C(=O)N[C@H](Cc1ccccc1)C(=O)N[C@@H](CCCCN)C(N)=O , cell viability read: 98.7

Assay Caco-2, sample Cc1ccc(CC2(O)CCN(CCOc3ccc(O)cc3)CC2)cc1 , cell viability read: 95.5

Assay Caco-2, sample COc1cc(C(=O)c2c(C)oc3c(O)c(OC)ccc23)cc(OC)c1OC , cell viability read: 41.4

====

Reported drug sensitivity score is given for each of the following compounds.
- Tested on: Calu-3
- Assay: drug sensitivity score (DSS) for viability; higher = more toxic; extreme values may be limits of the assay
- Condition Description: 72 h
Provide a numeric answer; units are not to be included.

Reference set, count: 4
Compound	drug sensitivity score
Cc1c(C)c2c(c(C)c1O)CC[C@@](C)(CCC[C@H](C)CCC[C@H](C)CCCC(C)C)O2	0
CCCCNc1ccc(C(=O)OCCN(C)C)cc1	0
CCOC(=O)CNC(=O)[C@@H]1CCCN1C(=O)Cc1ccccc1	0
Nc1ccc([As](=O)(O)O)cc1	0

Kindly consider the entry below.
CC1=C(CC(=O)O)c2cc(F)ccc2/C1=C\c1ccc(S(C)(=O)=O)cc1 yielded drug sensitivity score of 0

====

- Test system: Calu-3
- Assay: cell viability relative to DMSO; higher = less toxic
- Condition Description: 72 h; 1000 nM
Observable: cell viability (%)
Give the value, in units of %, as a plain number.

Reference set, count: 4
Molecule	Observable	Measured Number
N[C@@H](CC(=O)N1CCn2c(nnc2C(F)(F)F)C1)Cc1n[nH]c2c(F)c(F)ccc12 [PK-44]	cell viability	100
CCCCc1nn(-c2ccccc2C(F)(F)F)c(=O)n1Cc1ccc(-c2ccccc2S(=O)(=O)NC(=O)c2sccc2C)cc1	cell viability	106
COc1ccc(CN2CCN(C(c3ccc(F)cc3)c3ccc(F)cc3)CC2)c(OC)c1OC [lomerizine]	cell viability	139
COc1cc(C(C)=O)ccc1OCCCN1CCC(c2noc3cc(F)ccc23)CC1 [iloperidone]	cell viability	104

CCOC(=O)[C@@](C)(N)Cc1ccc(O)c(O)c1 [methyldopate] yielded cell viability of 102

NC1CCN(c2cccc(Cl)n2)CC1 yielded cell viability of 87.9

Nc1nc(=O)n([C@@H]2CS[C@H](CO)O2)cc1F [emtricitabine] yielded cell viability of 96.2

CC(=O)Nc1ccc(OC[C@](C)(O)C(=O)Nc2ccc([N+](=O)[O-])c(C(F)(F)F)c2)cc1 [andarine] yielded cell viability of 105

CC(C)(C)[C@H]1CC[C@H](CC2=C(O)C(=O)c3ccccc3C2=O)CC1 [buparvaquone] yielded cell viability of 96.6
